assay: Inhibition of calf intestinal alkaline phosphatase; set-up: species or system Bos taurus
Measured IC50 of individual entries
Quantity Measured: IC50 (µM)

compound=CCOC(=O)c1s/c(=N\C(=O)CCCc2ccccc2)oc1C quantity_measured=IC50 endpoint_result=0.67
compound=CCOC(=O)c1s/c(=N\C(=O)c2cccc(Cl)c2)oc1C quantity_measured=IC50 endpoint_result=2.9
compound=CCOC(=O)c1s/c(=N\C(=O)c2cccc(Br)c2)oc1C quantity_measured=IC50 endpoint_result=1.16
compound="N[C@@H](Cc1ccccc1)C(=O)O [PHENYLALANINE]" quantity_measured=IC50 endpoint_result=80.2

* * *

species on record: Bos taurus; assay: Inhibition of calf intestinal alkaline phosphatase relative to control; design: concentration or dose not given beside the values; conditions: concentration not given here
Threshold check on inhibition: at or above 30% gives T, strictly below gives F.

smi=CCOC(=O)c1s/c(=N\C(=O)c2ccccc2C)oc1C label_value=F
smi=CCOC(=O)c1s/c(=N\C(=O)c2ccccc2[N+](=O)[O-])oc1C label_value=T
smi=CCOC(=O)c1s/c(=N\C(=O)c2ccco2)oc1C label_value=T
smi=CCOC(=O)c1s/c(=N\C(=O)c2ccccc2Cl)oc1C label_value=T
smi=CCOC(=O)c1s/c(=N\C(=O)c2ccc(Cl)cc2)oc1C label_value=F
smi=CCOC(=O)c1s/c(=N\C(=O)Cc2ccccc2)oc1C label_value=F
smi=CCOC(=O)c1s/c(=N\C(=O)c2cc(OC)c(OC)c(OC)c2)oc1C label_value=T
smi=CCOC(=O)c1s/c(=N\C(=O)c2cccc(C)c2)oc1C label_value=F
smi=CCOC(=O)c1s/c(=N\C(=O)c2ccc([N+](=O)[O-])cc2)oc1C label_value=T
